Record form. Attribute: pKd. Fill in for each entry.
- tested-system: T1, EsCas13d, nuclease-dead (Eubacterium siraeum, UniProt B0MS50, R295A;H300A;R849A;H854A)
- T1 sequence: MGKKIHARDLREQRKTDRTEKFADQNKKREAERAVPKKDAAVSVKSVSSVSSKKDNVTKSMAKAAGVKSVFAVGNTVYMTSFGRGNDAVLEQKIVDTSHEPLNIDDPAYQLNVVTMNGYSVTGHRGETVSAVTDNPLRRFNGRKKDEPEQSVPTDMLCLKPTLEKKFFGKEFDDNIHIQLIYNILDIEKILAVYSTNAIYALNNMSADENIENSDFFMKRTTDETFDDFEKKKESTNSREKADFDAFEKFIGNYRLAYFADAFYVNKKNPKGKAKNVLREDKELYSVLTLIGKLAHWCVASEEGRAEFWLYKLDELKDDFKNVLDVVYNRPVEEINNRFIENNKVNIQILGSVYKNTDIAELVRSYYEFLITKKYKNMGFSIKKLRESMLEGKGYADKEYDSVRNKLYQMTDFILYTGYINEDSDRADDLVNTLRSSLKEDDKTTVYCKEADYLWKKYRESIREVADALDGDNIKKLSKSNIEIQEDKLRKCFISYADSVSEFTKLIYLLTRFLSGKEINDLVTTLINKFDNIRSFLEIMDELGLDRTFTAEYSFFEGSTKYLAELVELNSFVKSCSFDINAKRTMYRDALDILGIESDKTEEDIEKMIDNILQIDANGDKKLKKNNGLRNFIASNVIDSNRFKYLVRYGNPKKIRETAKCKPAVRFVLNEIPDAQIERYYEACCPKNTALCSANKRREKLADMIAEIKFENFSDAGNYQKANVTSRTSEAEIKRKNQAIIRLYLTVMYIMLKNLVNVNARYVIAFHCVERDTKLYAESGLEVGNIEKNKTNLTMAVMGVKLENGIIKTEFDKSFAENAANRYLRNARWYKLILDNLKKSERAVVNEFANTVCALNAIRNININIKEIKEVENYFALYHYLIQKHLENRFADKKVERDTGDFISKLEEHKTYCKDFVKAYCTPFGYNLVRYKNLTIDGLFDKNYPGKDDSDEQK
- assay-procedure: crRNA (strand 1, pre-loaded); Mg2+; 40 mM Tris-HCl pH 7.5, 150 mM NaCl, 6 mM MgCl2, 1 mM DTT, 0.1% Tween-20, 0.2 mg/ml BSA; 25 C; 10 min per concentration, then washed
- conditions-used: tags: His6-TwinStrep-SUMO cleaved; N-terminal SNAP kept (SNAP-Surface 488); label: 3' end held by stalled T7 RNA polymerase
Answers are plain numbers, as −log10 of the molar value.

For each entry beneath this line, provide reported pKd.
1. target 1 insG 3' of 9,insU 3' of 1 (mixed) RNA 1: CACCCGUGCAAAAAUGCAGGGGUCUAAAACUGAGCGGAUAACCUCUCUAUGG RNA 2: GGGAAUGGAUCCACAUCUACGAAUUCGUACCAUAGAGAGGUUAGUCCGCUCAUCCGAGAUCGGAAGAGCACACGU
2. target 1 insU 3' of 18,insU 3' of 9 (mixed) RNA 1: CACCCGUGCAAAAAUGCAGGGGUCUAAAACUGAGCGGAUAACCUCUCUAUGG RNA 2: GGGAAUGGAUCCACAUCUACGAAUUCGUACCAUAUGAGAGGUUAUUCCGCUCACCGAGAUCGGAAGAGCACACGU
3. target 1 G17U,A18U (mixed) RNA 1: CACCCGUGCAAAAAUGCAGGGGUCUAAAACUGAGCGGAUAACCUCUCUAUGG RNA 2: GGGAAUGGAUCCACAUCUACGAAUUCGUACCAUUUAGAGGUUAUCCGCUCACCGAGAUCGGAAGAGCACACGU
4. target 2 MT 5'PFS GCC 3'PFS AUG (mixed) RNA 1: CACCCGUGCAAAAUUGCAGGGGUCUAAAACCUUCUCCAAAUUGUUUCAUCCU RNA 2: GGGAAUGGAUCCACAUCUACGAAUUCGCCAGGAUGAAACAAUUUGGAGAAGAUGAGAUCGGAAGAGCACACGU

Reply |
1. 7.63
2. 7.31
3. 7.53
4. 7.89
